Where these numbers come from: ChEMBL document CHEMBL1201862

system: LXFL 529; assay: NCI tumour cell line growth inhibition, 48 h
Calls of active or inactive are those of the source. Rule as the data show it: active = GI50 up to about 1.1 µM and inactive = higher.
quantity-name: GI50

compound	measurement-target	GI50
COC(=O)C1=CC2OC13CC1CCC3(C2=O)C1(C)C (stereo unspecified)	LXFL 529	4.49 µM (inactive)
C/C(=N\NC(=O)c1ccccc1O)c1c(O)cc(C)oc1=O	LXFL 529	85.5 µM (inactive)
O=C(CSc1nnc(Cc2ccccc2)o1)Nc1cccc(Cl)c1	LXFL 529	44.1 µM (inactive)
O=c1nc(NC(c2ccccc2)(c2ccccc2)c2ccccc2)ccn1CCO	LXFL 529	63.4 µM (inactive)
COc1cc2c(cc1O)[C@H](C)C(c1ccc(Cl)cc1)O2 (stereo partly specified)	LXFL 529	17.2 µM (inactive)

List the reported GI50 of each compound below.
1. O=C(O)CCN(CCCN(CCC(=O)O)CCC(=O)O)CCC(=O)O
2. C/C=C(\NC(=O)C(CCCCN)NC(=O)C(C)NC(=O)C1CSC(C)C(NC(=O)C2CSCC(NC(=O)C(C)NC(=O)C(N)C(C)CC)C(=O)NC(CCCCN)C(=O)NC(Cc3ccccc3)C(=O)NC(CC(C)C)C(=O)N2)C(=O)N2CCCC2C(=O)NCC(=O)N1)C(=O)NCC(=O)NC1CSCC2NC(=O)C(Cc3ccc(O)cc3)NC(=O)C(CSC=CNC2=O)NC(=O)C(CC(N)=O)NC(=O)C(Cc2ccccc2)NC1=O (stereo unspecified)

1: > 100 µM (inactive); 2: > 100 µM (inactive)

List the reported GI50 of each compound below.
1. COC(=O)C1CC2C=CC=CC(=O)C2(C)C1 (stereo unspecified)
2. CC(C)(CN1CCCCC1)C(=O)/C=C/c1ccc(Cl)c(Cl)c1
3. OCC1OC(NO)C(O)C(O)C1O (stereo unspecified)
4. CCCCCCCCCCCCCC(=O)CC(=O)c1c(O)cccc1O

["31.2 µM (inactive)", "1.46 µM (inactive)", "> 100 µM (inactive)", "35.2 µM (inactive)"]
